In this section we review reported EC50, In Presence of rhARG2 (T cell proliferation) values for a set of binders.
Target: T1, recombinant human trimeric ARG2 enzyme (construct not given) (human, UniProt P78540 23-354)
T1 sequence (looked up): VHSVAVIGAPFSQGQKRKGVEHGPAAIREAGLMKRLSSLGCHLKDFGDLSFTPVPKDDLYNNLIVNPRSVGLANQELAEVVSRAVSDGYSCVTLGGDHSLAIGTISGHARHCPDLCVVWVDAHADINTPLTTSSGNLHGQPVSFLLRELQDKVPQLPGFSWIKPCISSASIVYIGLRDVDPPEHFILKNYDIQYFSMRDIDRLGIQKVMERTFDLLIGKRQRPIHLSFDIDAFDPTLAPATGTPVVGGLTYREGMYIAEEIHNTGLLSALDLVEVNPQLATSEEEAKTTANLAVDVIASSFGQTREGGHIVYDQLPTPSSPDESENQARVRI
Test: cell-based or functional assay
Express the result in nM but write the number alone.

binder	meas-value
C0021022 recombinant human IgG1 (antibody, V domains shown) VH: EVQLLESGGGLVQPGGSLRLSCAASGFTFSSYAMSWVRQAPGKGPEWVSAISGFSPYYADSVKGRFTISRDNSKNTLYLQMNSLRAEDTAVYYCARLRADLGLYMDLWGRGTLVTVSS VL: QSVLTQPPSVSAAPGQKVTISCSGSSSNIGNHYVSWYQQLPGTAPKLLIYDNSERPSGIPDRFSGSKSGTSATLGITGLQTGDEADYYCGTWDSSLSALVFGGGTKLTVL	132
C0021133 recombinant human IgG1 (antibody, V domains shown) VH: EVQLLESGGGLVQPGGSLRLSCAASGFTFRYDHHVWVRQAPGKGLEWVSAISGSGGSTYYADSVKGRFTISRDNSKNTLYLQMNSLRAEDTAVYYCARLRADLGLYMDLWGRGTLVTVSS VL: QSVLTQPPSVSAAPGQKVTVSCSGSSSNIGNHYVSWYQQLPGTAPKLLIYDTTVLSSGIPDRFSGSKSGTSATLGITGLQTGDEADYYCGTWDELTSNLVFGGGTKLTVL	101
C0021061 recombinant human IgG1 (antibody, V domains shown) VH: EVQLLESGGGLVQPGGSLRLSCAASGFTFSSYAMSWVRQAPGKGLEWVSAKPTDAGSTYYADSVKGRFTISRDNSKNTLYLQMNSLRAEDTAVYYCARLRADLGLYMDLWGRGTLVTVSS VL: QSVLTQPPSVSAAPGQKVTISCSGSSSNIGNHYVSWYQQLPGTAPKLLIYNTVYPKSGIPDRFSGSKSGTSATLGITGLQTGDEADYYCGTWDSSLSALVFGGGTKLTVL	113

Please give the measured EC50, In Presence of rhARG2 (T cell proliferation) for this binder: C0021092 recombinant human IgG1 (antibody, V domains shown) VH: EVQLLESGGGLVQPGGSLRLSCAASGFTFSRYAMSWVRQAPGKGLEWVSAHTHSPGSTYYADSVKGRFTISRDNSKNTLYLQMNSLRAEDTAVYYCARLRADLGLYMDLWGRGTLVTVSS VL: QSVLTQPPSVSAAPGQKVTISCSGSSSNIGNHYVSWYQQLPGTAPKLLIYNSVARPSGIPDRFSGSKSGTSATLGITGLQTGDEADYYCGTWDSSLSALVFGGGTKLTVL 116
